Target: Ba/F3-KIF5B-RET cell (Homo sapiens)
Construct: fused on or other part: P33176 (Kinesin-1 heavy chain)
Sequence (P07949 whole entry, change not shown, the tested form may be a part): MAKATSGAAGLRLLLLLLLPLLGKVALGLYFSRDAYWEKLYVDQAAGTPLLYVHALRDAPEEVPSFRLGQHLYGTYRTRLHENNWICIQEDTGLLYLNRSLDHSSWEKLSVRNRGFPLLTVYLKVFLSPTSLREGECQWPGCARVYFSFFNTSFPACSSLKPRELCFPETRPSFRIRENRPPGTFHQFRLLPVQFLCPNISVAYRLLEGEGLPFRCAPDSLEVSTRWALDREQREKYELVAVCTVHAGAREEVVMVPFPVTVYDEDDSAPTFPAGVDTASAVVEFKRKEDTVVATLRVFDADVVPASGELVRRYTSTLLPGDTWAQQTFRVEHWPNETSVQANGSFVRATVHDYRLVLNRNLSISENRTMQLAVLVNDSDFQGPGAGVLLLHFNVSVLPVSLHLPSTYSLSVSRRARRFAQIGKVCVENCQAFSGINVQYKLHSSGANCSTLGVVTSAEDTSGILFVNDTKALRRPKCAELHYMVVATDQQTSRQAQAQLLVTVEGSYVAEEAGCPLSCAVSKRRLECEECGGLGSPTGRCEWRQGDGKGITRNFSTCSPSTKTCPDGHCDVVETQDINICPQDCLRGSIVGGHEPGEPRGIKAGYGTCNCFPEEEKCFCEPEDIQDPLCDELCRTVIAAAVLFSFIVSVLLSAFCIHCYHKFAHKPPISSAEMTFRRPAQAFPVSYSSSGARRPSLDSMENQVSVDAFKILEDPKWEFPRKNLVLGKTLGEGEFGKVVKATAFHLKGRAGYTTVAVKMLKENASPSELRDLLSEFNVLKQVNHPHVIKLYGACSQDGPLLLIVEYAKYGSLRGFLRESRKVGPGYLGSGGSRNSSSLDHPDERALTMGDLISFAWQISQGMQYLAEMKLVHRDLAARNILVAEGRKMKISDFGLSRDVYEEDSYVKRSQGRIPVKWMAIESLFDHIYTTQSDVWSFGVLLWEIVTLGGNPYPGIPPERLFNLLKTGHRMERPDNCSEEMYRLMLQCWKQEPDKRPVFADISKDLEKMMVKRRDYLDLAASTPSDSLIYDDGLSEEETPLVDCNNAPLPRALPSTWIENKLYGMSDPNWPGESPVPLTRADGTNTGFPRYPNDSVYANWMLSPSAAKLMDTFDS
Assay: CellTiter-Glo luminescence assay, inhibitory activity against Ba/F3-KIF5B-RET cell
Type: cell-based
Conditions: 72 h, read-out: Ba/F3-KIF5B-RET cell activity
This listing pairs compounds with measured GI50.
Your answer is read as µM, so omit the unit and give the number.

{"columns": ["compound", "metric name", "measured number"],
 "data": [
  ["COc1ccc(CN2C3CC2CN(c2cnc(-c4cc(OCC(C)(C)C#N)cn5ncc(C#N)c45)cn2)C3)cn1", "GI50", 0.0156],
  ["COc1ccc(CN2C3CC2CN(c2cnc(-c4cc(OCCN5CCC6NCCC6C5)cn5ncc(C#N)c45)cn2)C3)cn1 (stereo not shown)", "GI50", 0.123],
  ["COc1ccc(CN2C3CC2CN(c2ccc(-c4cc(NCC(C)(C)O)cn5ncc(C#N)c45)cn2)C3)cn1", "GI50", 0.00339]
]}

Moving on to another compound below.
Task item: Return reported GI50 for target or system Ba/F3-KIF5B-RET cell (Homo sapiens), item `COc1ccc(CN2C3CC2CN(c2cnc(-c4cc(OCCN5CC6(CCCO6)C5)cn5ncc(C#N)c45)cn2)C3)cn1` .
Reply: 0.0138
